target: hERG potassium channel (Homo sapiens, UniProt Q12809, Y652A); assay: whole-cell patch clamp, inhibition at […]; assay type: cell-based
Sequence (Q12809 whole entry Y652A): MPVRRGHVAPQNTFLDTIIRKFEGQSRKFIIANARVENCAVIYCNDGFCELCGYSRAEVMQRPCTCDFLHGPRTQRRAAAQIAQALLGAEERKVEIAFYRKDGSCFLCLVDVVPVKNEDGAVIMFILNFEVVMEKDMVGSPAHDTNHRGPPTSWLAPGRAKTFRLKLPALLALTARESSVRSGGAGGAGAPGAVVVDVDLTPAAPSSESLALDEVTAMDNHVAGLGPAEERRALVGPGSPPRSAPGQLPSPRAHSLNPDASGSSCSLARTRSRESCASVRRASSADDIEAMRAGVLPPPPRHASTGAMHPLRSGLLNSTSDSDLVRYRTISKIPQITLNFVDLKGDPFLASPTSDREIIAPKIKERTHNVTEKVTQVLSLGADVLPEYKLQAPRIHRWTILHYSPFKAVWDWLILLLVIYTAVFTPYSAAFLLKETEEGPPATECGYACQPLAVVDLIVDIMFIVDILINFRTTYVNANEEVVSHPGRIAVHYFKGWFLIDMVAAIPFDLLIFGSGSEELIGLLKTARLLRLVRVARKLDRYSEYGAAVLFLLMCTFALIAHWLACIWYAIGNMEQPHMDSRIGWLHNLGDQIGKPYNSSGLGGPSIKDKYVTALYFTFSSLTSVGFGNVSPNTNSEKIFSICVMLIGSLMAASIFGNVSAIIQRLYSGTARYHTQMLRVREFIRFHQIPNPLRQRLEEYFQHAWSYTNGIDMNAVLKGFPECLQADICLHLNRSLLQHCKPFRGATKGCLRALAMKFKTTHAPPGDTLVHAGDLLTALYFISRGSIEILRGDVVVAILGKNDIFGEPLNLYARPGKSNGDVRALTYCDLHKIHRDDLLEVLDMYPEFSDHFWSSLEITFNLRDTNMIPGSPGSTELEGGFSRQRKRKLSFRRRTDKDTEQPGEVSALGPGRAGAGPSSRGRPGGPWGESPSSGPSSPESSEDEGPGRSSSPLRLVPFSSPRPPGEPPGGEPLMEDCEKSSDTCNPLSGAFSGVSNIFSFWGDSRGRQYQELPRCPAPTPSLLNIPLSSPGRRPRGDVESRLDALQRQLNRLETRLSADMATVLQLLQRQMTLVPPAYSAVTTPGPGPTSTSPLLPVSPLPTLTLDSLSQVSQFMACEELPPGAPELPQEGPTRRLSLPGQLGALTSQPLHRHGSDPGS
assay-metric: inhibition at 1 µM (%)
Supply the numeric figure in %, leaving out any unit text.

For `CC1=C(O)C(=O)C=C2C1=CC=C1[C@@]2(C)CC[C@@]2(C)[C@@H]3C[C@](C)(C(=O)O)CC[C@]3(C)CC[C@]12C` , what is its reported inhibition at 1 µM?
56.3

====

molecular target: hERG potassium channel (Homo sapiens, UniProt Q12809); assay: whole-cell patch clamp, tail current inhibition
Sequence (Q12809 whole entry): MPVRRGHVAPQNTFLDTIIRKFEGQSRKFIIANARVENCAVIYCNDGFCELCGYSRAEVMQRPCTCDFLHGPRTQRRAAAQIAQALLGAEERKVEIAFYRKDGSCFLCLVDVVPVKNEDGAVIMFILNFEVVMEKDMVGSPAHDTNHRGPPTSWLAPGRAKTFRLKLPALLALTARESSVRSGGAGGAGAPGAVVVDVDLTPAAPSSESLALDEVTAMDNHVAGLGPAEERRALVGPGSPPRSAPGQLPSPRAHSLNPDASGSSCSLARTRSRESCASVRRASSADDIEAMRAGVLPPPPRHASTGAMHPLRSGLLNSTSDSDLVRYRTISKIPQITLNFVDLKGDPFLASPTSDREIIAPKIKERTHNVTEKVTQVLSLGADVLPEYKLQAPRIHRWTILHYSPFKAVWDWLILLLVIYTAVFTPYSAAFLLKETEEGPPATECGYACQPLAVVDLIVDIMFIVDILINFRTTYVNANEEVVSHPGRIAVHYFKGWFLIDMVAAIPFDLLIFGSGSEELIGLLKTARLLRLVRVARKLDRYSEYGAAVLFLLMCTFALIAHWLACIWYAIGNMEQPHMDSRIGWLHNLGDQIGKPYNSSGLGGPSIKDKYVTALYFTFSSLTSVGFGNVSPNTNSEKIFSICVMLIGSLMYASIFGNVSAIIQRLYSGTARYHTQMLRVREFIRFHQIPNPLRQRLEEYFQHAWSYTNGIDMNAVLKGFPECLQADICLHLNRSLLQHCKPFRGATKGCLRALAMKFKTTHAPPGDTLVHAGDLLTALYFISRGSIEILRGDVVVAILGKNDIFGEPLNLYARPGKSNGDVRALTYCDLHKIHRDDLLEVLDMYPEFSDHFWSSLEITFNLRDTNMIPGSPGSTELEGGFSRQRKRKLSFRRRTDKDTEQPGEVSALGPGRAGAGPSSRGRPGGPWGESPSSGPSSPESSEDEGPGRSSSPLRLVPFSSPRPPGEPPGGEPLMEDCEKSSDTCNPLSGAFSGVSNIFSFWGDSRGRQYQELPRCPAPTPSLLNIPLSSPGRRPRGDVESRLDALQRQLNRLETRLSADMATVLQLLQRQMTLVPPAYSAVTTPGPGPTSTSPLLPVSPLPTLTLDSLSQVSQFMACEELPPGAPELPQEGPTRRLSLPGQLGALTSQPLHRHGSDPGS
assay-metric: IC50 (nM)
Supply the numeric figure in nM, leaving out any unit text.

For CC1=C(O)C(=O)C=C2C1=CC=C1[C@@]2(C)CC[C@@]2(C)[C@@H]3C[C@](C)(C(=O)O)CC[C@]3(C)CC[C@]12C [Celastrol] , what is its reported IC50?
830
